# METHOD_DESCRIPTION: physchem
# MEASUREMENT_CONDITIONS: pH 5.2 buffer, pH 5.2, Solubility
MEASURE_NAME: solubility (µg/mL)

>>> result("NS(=O)(=O)c1cc2c(s1)S(=O)(=O)CCN2")
190
>>> result("NS(=O)(=O)c1cc2c(s1)S(=O)(=O)C(CCO)CN2 (stereo unspecified)")
4500

I: NS(=O)(=O)c1cc2c(s1)S(=O)(=O)C1(CC1)CN2
II: NS(=O)(=O)c1cc2c(s1)SC(CC(=O)O)C(=O)N2 (stereo unspecified)
III: COCCOCCN(CCOC)CCC1CNc2cc(S(N)(=O)=O)sc2S1(=O)=O (stereo unspecified)
IV: CC(C)CNC(=O)CC1Sc2sc(S(N)(=O)=O)cc2NC1=O (stereo unspecified)
Q) Arrange these compounds by their solubility, starting with the largest number. Answer format: list of labels, ordered as asked.
A) III, II, I, IV

a: NS(=O)(=O)c1cc2c(s1)S(=O)(=O)CC(=O)N2
b: CC(C)CNCCC1CNc2cc(S(N)(=O)=O)sc2S1(=O)=O (stereo unspecified)
Q) Record comparison, field solubility: mark the lower of a and b . Indicate which entry you chose by stating its label.
A) a
